# Tested on: NCI/ADR-RES ovarian
# procedure-details: NCI tumour cell line growth inhibition, 48 h
endpoint: GI50

| compound | experimental-system | observed-measurement |
| --- | --- | --- |
| COc1cc(C2C(C#N)=C(N)Oc3cc(O)ccc32)cc(OC)c1OC (centres undefined) | NCI/ADR-RES ovarian | 1.72 µM |
| CC/C=C\C/C=C\C[C@H]1C/C=C2/C(=O)C=C[C@H]2C/C=C\CCC(=O)O1 | NCI/ADR-RES ovarian | 4.7 µM |
| O=CC1(C2(C=O)c3ccccc3-c3ccccc32)c2ccccc2-c2ccccc21 | NCI/ADR-RES ovarian | 2.54 µM |
| COc1cc2c3c(n(CCCCl)c(=O)c2cc1OC)-c1ccc(C#N)cc1C3=O | NCI/ADR-RES ovarian | 22.4 µM |

====

# System: SW-620 colon
# procedure-details: NCI tumour cell line growth inhibition, 48 h; in the data active = GI50 below about 0.43 µM; inactive = the rest
*1 amine or outer side, *2 acyl side, *3 side chain or, on linkers, in order; H or OH if unused. Where a SMILES comes first, the peptide text is derived from it. Bridges are numbered along the chain shown (N, C = ends). [ ]: non-standard residue; d: D form. The star is where a group is joined. Phe(3-Me) = Cc1cccc(C[C@H](N)C(=O)O)c1; NH(4-Cl-2-F-phenyl) = Fc1cc(Cl)ccc1N*; Pro(4R-Me) = C[C@H]1CN[C@H](C(=O)O)C1; Propanoyl(3-NMe2) = CN(C)CCC(=O)*; Hyp = O=C(O)[C@@H]1C[C@@H](O)CN1; aThr = C[C@H](O)[C@H](N)C(=O)O; Pip = O=C(O)[C@@H]1CCCCN1; CO = O=C([*:1])[*:2]
Outcomes: label 1 = active, label 0 = inactive

| compound | cat |
| --- | --- |
| Cc1ccc(S(=O)(=O)n2cc(-c3nnnn3-c3ccc(Cl)cc3)c(=O)c3ccccc32)cc1 | label 0 |
| C[C@]12CC[C@H]3[C@@H](C[C@@H]4N=C(c5ccc(O)cc5)S[C@@]45C[C@H](O)CC[C@]35C)[C@@H]1CC[C@@H]2O | label 0 |
| COc1ccc(Cn2c(Br)c3c(c2-c2cc(OC)c(OC)c(OC)c2)CCc2sc(NC(C)=O)nc2-3)cc1 | label 0 |
| CC[C@]12CCCN3CC[C@]4(C(=C(C(=O)OC)C1)Nc1ccccc14)[C@@H]32 | label 0 |
| Cc1ccccc1/C=C1\CN(C(=O)OC(C)(C)C)C/C(=C\c2ccccc2C)C1=O | label 0 |
| Cc1cccc(C[C@H](NC(=O)Nc2ccc(Cl)cc2F)C(=O)N[C@@H]2C(=O)N3C[C@H](OC(=O)CCN(C)C)C[C@H]3C(=O)N3CCCC[C@H]3C(=O)N[C@@H](C)C(=O)N3C[C@H](C)C[C@H]3C(=O)O[C@H]2C)c1 ({NH(4-Cl-2-F-phenyl)-CO}-[Phe(3-Me)][aThr][Hyp](Propanoyl(3-NMe2))[Pip]A[Pro(4R-Me)]; ester 2-C) | label 0 |
| Nc1nc2c(c3cnccc13)C(c1cccc(Cl)c1)Cc1cnccc1-2 (centres undefined) | label 0 |
| COc1cc2c3c(n(CCCCl)c(=O)c2cc1OC)-c1ccc(C#N)cc1C3=O | label 0 |
| COc1ccc(CNc2nc(NCc3ccc(OC)cc3)c3n[nH]c(C(C)C)c3n2)cc1 | label 0 |
| O=c1cccc(C#CC#C/C=C/CO)o1 | label 0 |
| COc1cc([C@@H]2c3cc4c(c(O)c3C[C@H]3COC(=O)[C@@H]32)OCO4)cc(OC)c1O | label 1 |
| CC[C@@]1(O)C(=O)OCc2c1cc1n(c2=O)Cc2c-1nc1ccccc1c2/C=N/OC(C)(C)C | label 1 |
| CN1CCCN(C(c2ccccc2)c2ccc(Br)cc2)CC1 (centres undefined) | label 0 |
| CC(C)[C@@H]1CC[C@@H]2[C@@H]1[C@H](OC(=O)/C=C/c1ccccc1)[C@]1(C(C)C)C[C@@H](OC(=O)CO)[C@@]2(C)O1 | label 0 |
